These measurements were taken from PubChem BioAssay AID1259407.

Tested on: CCRIS mutagenicity, Ames/micronucleus/aberration tests
Test: CCRIS mutagenicity studies
Conditions: Test System: AMES SALMONELLA TYPHIMURIUM; Strain/Indicator: TA102; Metabolic Activation: RAT, LIVER, S-9, AROCLOR; Method: PREINCUBATION
Activity calls are given as the source filed them. How the calls were made is not given here.
The reply should name one outcome from active, inactive

In: What call does the record list for CCC(C(C)O)[N+](=O)[O-] (centres undefined) ?
Out: inactive

In: Which result was noted for this compound in the test: CC(C)[N+](=O)[O-]
Out: active

In: Record request — test call for CCCCC[N+](=O)[O-]
Out: inactive

In: For this compound, state the assay outcome: CCC[N+](=O)[O-]
Out: inactive
